test system: SARS-CoV-2; test: Cytopathic effect inhibition assay in LC-HK2 cells; type: cell-based; settings: Severe acute respiratory syndrome coronavirus 2; LC-HK2, CellTiter-Glo, 72 h post-infection; read-out: CPE inhibition EC50
test readout: EC50 (nM)

CCCC[C@@H](C=O)NC(=O)[C@H](CC(C)C)NC(=O)OCc1ccccc1 [Calpeptin, reference compound]: 60

====

test system: SARS-CoV-2-GFP; experiment: microbe, parasite or virus in culture; assay type: cell-based; settings: mean with standard error, read-out: VERO E6 EC50
Parameter: EC50. Scope: all listed entries.
test readout: EC50 (nM)

CC(C)C[C@H](NC(=O)OCc1ccccc1)C(=O)N[C@@H](CC1CCNC1=O)C(O)S(=O)(=O)O (some centres unmarked) [GC-376, reference compound]: 1070
CCCC[C@H](NC(=O)[C@H](CC(C)C)NC(=O)OCc1ccccc1)C(O)S(=O)(=O)[O-].[Na+] (some centres unmarked): 120
